fraction unbound at 6 h, 1 µM listing for selected compounds.
ASSAY COMMENT: Regional brain tissue binding by equilibrium dialysis, human post-mortem brain homogenate (control and AD donors)
Type: in vitro ADME
TEST PARAMETERS: human, post-mortem brain tissue homogenate, AD donors, FrCx, pH 7.4, AD donors, FrCx; biological replicates; 1 µM, 6 h, 37 °C; read-out: fu,brain,ROI Mean
No unit in the answer, only the number.

Observe how each entry below is paired with its result.
compound="CC12CC3CC(C)(C1)CC(N)(C3)C2 [Memantine, memantine]" outcome_measure="fraction unbound at 6 h, 1 µM" reading=0.114
compound=COc1ccc2c(c1)c(CC(=O)O)c(C)n2C(=O)c1ccc(Cl)cc1 outcome_measure="fraction unbound at 6 h, 1 µM" reading=0.103

Next up:
Which fraction unbound at 6 h, 1 µM reading was recorded for the compound Cc1nc2n(c(=O)c1CCN1CCC(c3noc4cc(F)ccc34)CC1)CCCC2O (stereo not drawn) ? 0.237

----------
ASSAY COMMENT: Regional brain tissue binding by equilibrium dialysis, human post-mortem brain homogenate (control and AD donors)
Type: in vitro ADME
TEST PARAMETERS: human, post-mortem brain tissue homogenate, AD donors, FrCx, pH 7.4, AD donors, FrCx; technical replicates; 1 µM, 6 h, 37 °C; read-out: fu,brain,ROI Median
OUTCOME MEASURE: fraction unbound at 6 h, 1 µM
No unit in the answer, only the number.

Observe how each entry below is paired with its result.
compound="CC12CC3CC(C)(C1)CC(N)(C3)C2 [Memantine, memantine]" reading=0.117
compound="Cc1nc2n(c(=O)c1CCN1CCC(c3noc4cc(F)ccc34)CC1)CCCC2O (stereo not drawn)" reading=0.216

Next up:
Which fraction unbound at 6 h, 1 µM reading was recorded for the compound COc1ccc2c(c1)c(CC(=O)O)c(C)n2C(=O)c1ccc(Cl)cc1 ? 0.095

----------
ASSAY COMMENT: in vitro
TEST PARAMETERS: Sprague-Dawley, rat, brain homogenate, pH 7.4, fu,brain,ROI Mean
fraction unbound at 6 h, 1 µM listing for selected compounds.
No unit in the answer, only the number.

compound="CC12CC3CC(C)(C1)CC(N)(C3)C2 [Memantine, memantine]" reading=0.076

Next up:
Which fraction unbound at 6 h, 1 µM reading was recorded for the compound COc1ccc2c(c1)c(CC(=O)O)c(C)n2C(=O)c1ccc(Cl)cc1 ? 0.068

----------
fraction unbound at 6 h, 1 µM listing for selected compounds.
ASSAY COMMENT: Regional brain tissue binding by equilibrium dialysis, human post-mortem brain homogenate (control and AD donors)
Type: in vitro ADME
TEST PARAMETERS: human, post-mortem brain tissue homogenate, control donors, FrCx, pH 7.4, Control donors, FrCx; technical replicates; 1 µM, 6 h, 37 °C; read-out: fu,brain,ROI Median
No unit in the answer, only the number.

compound="COc1ccc2c(c1)c(CC(=O)O)c(C)n2C(=O)c1ccc(Cl)cc1 [Indomethacin, indomethacin]" reading=0.088

Which fraction unbound at 6 h, 1 µM reading was recorded for the compound CC12CC3CC(C)(C1)CC(N)(C3)C2 [Memantine, memantine] ? 0.092

Would you mind doing Cc1nc2n(c(=O)c1CCN1CCC(c3noc4cc(F)ccc34)CC1)CCCC2O (stereo not drawn) [Paliperidone, paliperidone] as well? 0.198

----------
fraction unbound at 6 h, 1 µM listing for selected compounds.
ASSAY COMMENT: Regional brain tissue binding by equilibrium dialysis, human post-mortem brain homogenate (control and AD donors)
Assay type: in vitro ADME
TEST PARAMETERS: human, post-mortem brain tissue homogenate, control donors, BG, pH 7.4, Control donors, BG; technical replicates; 1 µM, 6 h, 37 °C; read-out: fu,brain,ROI Median

Observe how each entry below is paired with its result.
compound="CC12CC3CC(C)(C1)CC(N)(C3)C2 [Memantine, memantine]" outcome_measure="fraction unbound at 6 h, 1 µM" reading=0.093
compound="Cc1nc2n(c(=O)c1CCN1CCC(c3noc4cc(F)ccc34)CC1)CCCC2O (stereo not drawn)" outcome_measure="fraction unbound at 6 h, 1 µM" reading=0.192

Which fraction unbound at 6 h, 1 µM reading was recorded for the compound COc1ccc2c(c1)c(CC(=O)O)c(C)n2C(=O)c1ccc(Cl)cc1 ? 0.071

----------
fraction unbound at 6 h, 1 µM listing for selected molecules.
ASSAY COMMENT: Regional brain tissue binding by equilibrium dialysis, human post-mortem brain homogenate (control and AD donors)
Type: in vitro ADME
TEST PARAMETERS: human, post-mortem brain tissue homogenate, control donors, CRB, pH 7.4, Control donors, CRB; technical replicates; 1 µM, 6 h, 37 °C; read-out: fu,brain,ROI Median
No unit in the answer, only the number.

Observe how each entry below is paired with its result.
molecule="CC12CC3CC(C)(C1)CC(N)(C3)C2 [Memantine, memantine]" reading=0.116
molecule="Cc1nc2n(c(=O)c1CCN1CCC(c3noc4cc(F)ccc34)CC1)CCCC2O (stereo not drawn)" reading=0.207

Which fraction unbound at 6 h, 1 µM reading was recorded for the molecule COc1ccc2c(c1)c(CC(=O)O)c(C)n2C(=O)c1ccc(Cl)cc1 ? 0.109

----------
fraction unbound at 6 h, 1 µM listing for selected compounds.
ASSAY COMMENT: Regional brain tissue binding by equilibrium dialysis, human post-mortem brain homogenate (control and AD donors)
Type: in vitro ADME
TEST PARAMETERS: human, post-mortem brain tissue homogenate, AD donors, PrCx, pH 7.4, AD donors, PrCx; technical replicates; 1 µM, 6 h, 37 °C; read-out: fu,brain,ROI Median
No unit in the answer, only the number.

compound=COc1ccc2c(c1)c(CC(=O)O)c(C)n2C(=O)c1ccc(Cl)cc1 reading=0.08

Which fraction unbound at 6 h, 1 µM reading was recorded for the compound Cc1nc2n(c(=O)c1CCN1CCC(c3noc4cc(F)ccc34)CC1)CCCC2O (stereo not drawn) ? 0.224

Would you mind doing CC12CC3CC(C)(C1)CC(N)(C3)C2 [Memantine, memantine] as well? 0.103

----------
ASSAY COMMENT: Regional brain tissue binding by equilibrium dialysis, human post-mortem brain homogenate (control and AD donors)
Assay type: in vitro ADME
TEST PARAMETERS: human, post-mortem brain tissue homogenate, AD donors, BG, pH 7.4, AD donors, BG; technical replicates; 1 µM, 6 h, 37 °C; read-out: fu,brain,ROI Median
OUTCOME MEASURE: fraction unbound at 6 h, 1 µM
No unit in the answer, only the number.

Observe how each entry below is paired with its result.
compound="Cc1nc2n(c(=O)c1CCN1CCC(c3noc4cc(F)ccc34)CC1)CCCC2O (stereo not drawn) [Paliperidone, paliperidone]" outcome_measure="fraction unbound at 6 h, 1 µM" reading=0.249
compound="COc1ccc2c(c1)c(CC(=O)O)c(C)n2C(=O)c1ccc(Cl)cc1 [Indomethacin, indomethacin]" outcome_measure="fraction unbound at 6 h, 1 µM" reading=0.089

Which fraction unbound at 6 h, 1 µM reading was recorded for the compound CC12CC3CC(C)(C1)CC(N)(C3)C2 [Memantine, memantine] ? 0.111

----------
ASSAY COMMENT: Regional brain tissue binding by equilibrium dialysis, human post-mortem brain homogenate (control and AD donors)
Format: in vitro ADME
TEST PARAMETERS: human, post-mortem brain tissue homogenate, control donors, FrCx, pH 7.4, Control donors, FrCx; biological replicates; 1 µM, 6 h, 37 °C; read-out: fu,brain,ROI Mean
OUTCOME MEASURE: fraction unbound at 6 h, 1 µM
No unit in the answer, only the number.

Observe how each entry below is paired with its result.
compound="CC12CC3CC(C)(C1)CC(N)(C3)C2 [Memantine, memantine]" reading=0.094
compound="COc1ccc2c(c1)c(CC(=O)O)c(C)n2C(=O)c1ccc(Cl)cc1 [Indomethacin, indomethacin]" reading=0.088

Next up:
Which fraction unbound at 6 h, 1 µM reading was recorded for the compound Cc1nc2n(c(=O)c1CCN1CCC(c3noc4cc(F)ccc34)CC1)CCCC2O (stereo not drawn) [Paliperidone, paliperidone] ? 0.197

----------
fraction unbound at 6 h, 1 µM listing for selected compounds.
ASSAY COMMENT: Regional brain tissue binding by equilibrium dialysis, human post-mortem brain homogenate (control and AD donors)
Format: in vitro ADME
TEST PARAMETERS: human, post-mortem brain tissue homogenate, AD donors, CRB, pH 7.4, AD donors, CRB; biological replicates; 1 µM, 6 h, 37 °C; read-out: fu,brain,ROI Mean
No unit in the answer, only the number.

compound="CC12CC3CC(C)(C1)CC(N)(C3)C2 [Memantine, memantine]" outcome_measure="fraction unbound at 6 h, 1 µM" reading=0.152
compound=COc1ccc2c(c1)c(CC(=O)O)c(C)n2C(=O)c1ccc(Cl)cc1 outcome_measure="fraction unbound at 6 h, 1 µM" reading=0.149

Next up:
Which fraction unbound at 6 h, 1 µM reading was recorded for the compound Cc1nc2n(c(=O)c1CCN1CCC(c3noc4cc(F)ccc34)CC1)CCCC2O (stereo not drawn) ? 0.374
